biological target: human GST-PIKFYVE (Homo sapiens, UniProt Q9Y2I7); construct: GST; purchased Carna biosciences 11-118; assay: ADP-Glo kinase assay, enzyme inhibition activity against human PIKFYVE (Carna biosciences); assay type: biochemical; conditions: inhibitory activity at final compound concentration 10 nM; 1 hour at room temperature
Sequence (Q9Y2I7 whole entry): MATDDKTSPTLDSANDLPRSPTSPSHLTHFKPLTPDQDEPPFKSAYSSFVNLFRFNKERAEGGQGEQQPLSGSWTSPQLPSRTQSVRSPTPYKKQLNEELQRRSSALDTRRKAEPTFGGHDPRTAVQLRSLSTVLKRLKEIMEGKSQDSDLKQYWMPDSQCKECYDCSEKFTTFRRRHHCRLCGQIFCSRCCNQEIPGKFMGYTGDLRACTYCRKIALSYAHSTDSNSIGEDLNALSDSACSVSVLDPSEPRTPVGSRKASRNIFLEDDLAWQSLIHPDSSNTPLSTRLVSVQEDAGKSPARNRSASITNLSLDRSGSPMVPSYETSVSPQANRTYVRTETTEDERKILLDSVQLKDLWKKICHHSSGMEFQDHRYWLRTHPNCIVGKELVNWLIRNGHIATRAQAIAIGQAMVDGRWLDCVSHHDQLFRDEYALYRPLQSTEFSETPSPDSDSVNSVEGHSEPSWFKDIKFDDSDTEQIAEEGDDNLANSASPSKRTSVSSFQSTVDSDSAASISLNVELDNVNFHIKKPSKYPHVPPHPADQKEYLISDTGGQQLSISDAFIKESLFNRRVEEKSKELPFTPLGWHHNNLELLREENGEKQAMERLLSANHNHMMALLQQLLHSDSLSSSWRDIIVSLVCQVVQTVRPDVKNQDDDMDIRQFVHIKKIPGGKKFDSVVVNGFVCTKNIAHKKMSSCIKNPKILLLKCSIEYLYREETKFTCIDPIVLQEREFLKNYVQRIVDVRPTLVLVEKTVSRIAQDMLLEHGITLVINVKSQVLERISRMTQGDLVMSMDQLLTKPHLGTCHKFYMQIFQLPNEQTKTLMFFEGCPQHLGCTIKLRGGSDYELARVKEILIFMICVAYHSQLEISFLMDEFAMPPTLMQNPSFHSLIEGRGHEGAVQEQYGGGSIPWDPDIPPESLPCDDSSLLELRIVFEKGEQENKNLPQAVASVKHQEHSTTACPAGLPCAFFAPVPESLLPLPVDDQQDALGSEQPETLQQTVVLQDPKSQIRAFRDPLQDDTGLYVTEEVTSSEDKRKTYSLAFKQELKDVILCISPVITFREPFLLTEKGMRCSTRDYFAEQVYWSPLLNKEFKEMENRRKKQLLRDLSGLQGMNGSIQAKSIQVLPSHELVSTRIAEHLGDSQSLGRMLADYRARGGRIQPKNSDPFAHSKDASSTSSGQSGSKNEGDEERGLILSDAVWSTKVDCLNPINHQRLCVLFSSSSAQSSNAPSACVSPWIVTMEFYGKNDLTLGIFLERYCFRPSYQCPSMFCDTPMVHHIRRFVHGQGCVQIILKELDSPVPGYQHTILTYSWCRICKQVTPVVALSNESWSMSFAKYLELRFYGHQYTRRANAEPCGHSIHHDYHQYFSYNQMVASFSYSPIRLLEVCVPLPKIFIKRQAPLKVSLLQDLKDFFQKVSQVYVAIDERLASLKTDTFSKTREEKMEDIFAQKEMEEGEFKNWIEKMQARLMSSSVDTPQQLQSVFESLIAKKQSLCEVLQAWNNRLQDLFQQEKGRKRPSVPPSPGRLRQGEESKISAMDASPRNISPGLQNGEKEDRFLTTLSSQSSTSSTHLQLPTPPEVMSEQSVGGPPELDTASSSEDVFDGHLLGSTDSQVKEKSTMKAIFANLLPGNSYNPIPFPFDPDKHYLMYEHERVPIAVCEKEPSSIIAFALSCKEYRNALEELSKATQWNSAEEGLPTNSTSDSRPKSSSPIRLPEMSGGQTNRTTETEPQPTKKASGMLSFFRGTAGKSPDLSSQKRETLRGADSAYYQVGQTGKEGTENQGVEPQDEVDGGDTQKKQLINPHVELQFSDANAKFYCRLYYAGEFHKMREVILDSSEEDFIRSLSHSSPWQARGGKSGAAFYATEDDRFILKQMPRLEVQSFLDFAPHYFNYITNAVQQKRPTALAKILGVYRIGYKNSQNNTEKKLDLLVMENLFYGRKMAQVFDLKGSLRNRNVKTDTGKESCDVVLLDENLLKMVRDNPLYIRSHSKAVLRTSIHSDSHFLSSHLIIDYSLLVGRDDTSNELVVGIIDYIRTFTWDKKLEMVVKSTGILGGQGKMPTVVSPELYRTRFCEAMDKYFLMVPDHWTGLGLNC
Kindly return true (1) if reported ADP-Glo kinase assay (%, 10 nM) is no lower than 70%; return false (0) if it is lower.

Sample answers from the record:
Smiles data	Assigned class
Cc1cccc(/C=N/Nc2nc(N3CCOCC3)nc3c2ncn3-c2ccc(F)cn2)c1	true (1)
Cc1cccc(/C=N/Nc2nc(N3CCOCC3)nc3c2ncn3C2CCN(C(=O)c3ccccc3)CC2)c1	true (1)

Turning to the following compound.
Query block: Please tell me: is the compound Cc1cccc(/C=N/Nc2nc(N3CCOCC3)nc3c2ncn3CC(=O)c2ccccc2)c1 at or over 70% in terms of ADP-Glo kinase assay (%, 10 nM)?
Result block: false (0)

----------
target: PIKFYVE (Homo sapiens, UniProt Q9Y2I7); test: NanoBRET TE Intracellular Kinase Assay, interaction of PIKFYVE and compounds in HEK293 cells; settings: IC50 class from BRET; HEK293 cells expressing PIKFYVE-NanoLuc; 2 hours incubation
Sequence (Q9Y2I7 whole entry): as above
pIC50: −log10 of the molar value.
Observed property: pIC50

Worked examples, 10 compounds total:
Compound	pIC50
Cc1cccc(/C=N/Nc2nc(N3CCOCC3)nc3c2ncn3CC(=O)c2cccc(F)c2)c1 [Example 46]	7.70 to 8.00
Cc1cccc(/C=N/Nc2nc(N3CCOCC3)nc3c2ncn3CC(=O)c2cccc(C(F)(F)F)c2)c1 [Example 44]	7.52 to 7.70
Cc1cccc(/C=N/Nc2nc(N3CCOCC3)nc3c2ncn3-c2cncc(C)c2)c1 [Example 145]	≥ 8.00
Cc1cccc(/C=N/Nc2nc(N3CCOCC3)nc3c2ncn3-c2cccc(C)c2)c1 [Example 127]	≥ 8.00
Cc1cccc(/C=N/Nc2nc(N3CCOCC3)nc3c2ncn3-c2ccnc(C)c2)c1 [Example 140]	≥ 8.00
Cc1cccc(/C=N/Nc2nc(N3CCOCC3)nc3c(-c4cccnc4)cccc23)c1 [Example 215]	≥ 8.00
Cc1cccc(/C=N/Nc2nc(N3CCOCC3)nc3c2ncn3-c2cccc(C#N)c2)c1 [Example 126]	≥ 8.00
Cc1cccc(/C=N/Nc2nc(N3CCOCC3)nc3c2ncn3-c2ccc(F)cn2)c1 [Example 149]	≥ 8.00
Cc1cccc(/C=N/Nc2nc(N3CCOCC3)nc3c2nc(C)n3CC(=O)c2ccccn2)c1 [Example 157]	7.70 to 8.00
Cc1cccc(/C=N/Nc2nc(N3CCOCC3)nc3c2ncn3Cc2ccccn2)c1 [Example 20]	7.70 to 8.00

Query block: Which value of pIC50 has been reported for Cc1cccc(/C=N/Nc2nc(N3CCOCC3)nc3c2ncn3C2CCN(C(=O)c3ccncc3)CC2)c1 [Example 93] in the records?
Result block: 7.52 to 7.70

Query block: Next entry: Cc1cccc(/C=N/Nc2nc(N3CCOCC3)nc3c2ncn3C2CCN(S(C)(=O)=O)CC2)c1 [Example 92]
Result block: 7.52 to 7.70

----------
target: human GST-PIKFYVE (Homo sapiens, UniProt Q9Y2I7); construct: GST; purchased Carna biosciences 11-118; assay: ADP-Glo kinase assay, enzyme inhibition activity against human PIKFYVE (Carna biosciences); type: biochemical; details: inhibitory activity at final compound concentration 10 nM; 1 hour at room temperature
Observed property: ADP-Glo kinase assay (%, 10 nM) (%)
Number only, in %; omit the unit.

Smiles data	ADP-Glo kinase assay (%, 10 nM), %
COc1ccccc1Nc1nc(N2CCOCC2)nc2c1ncn2/N=C/c1cccc(C)c1	52.07
Cc1cccc(/C=N/Nc2nc(N3CCOCC3)nc3c2nc(C)n3-c2cc(C)n(C)n2)c1	63.58

Query block: Which value of ADP-Glo kinase assay (%, 10 nM) has been reported for C(=N\Nc1nc(N2CCOCC2)nc2c1ncn2-c1ccncc1)/c1c[nH]c2ccccc12 in the records?
Result block: 89.10

Query block: Next entry: Cc1cccc(-c2ccn(-c3nc(N4CCOCC4)nc4c3ncn4-c3cccc(OC4CC4)c3)n2)c1
Result block: 64.23

Query block: Next entry: COc1ccc(C(=O)Cn2cnc3c(N/N=C/c4cccc(C)c4)nc(N4CCOCC4)nc32)cc1
Result block: 74.99

Query block: Next entry: Cc1cccc(/C=N/Nc2nc(N3CCOCC3)nc3c2ncn3-c2ccccc2)c1
Result block: 80.61

Query block: Next entry: Cc1cccc(/C=N/Nc2nc(N3CCOCC3)nc3c2nc(C)n3-c2cccc(F)c2)c1
Result block: 78.79

Query block: Next entry: COc1cccc(-c2cccc3c(N/N=C/c4cccc(C)c4)nc(N4CCOCC4)nc23)c1
Result block: 64.14

----------
molecular target: human GST-PIKFYVE (Homo sapiens, UniProt Q9Y2I7); construct: GST; purchased Carna biosciences 11-118; test: ADP-Glo kinase assay, enzyme inhibition activity against human PIKFYVE (Carna biosciences); format: biochemical; conditions: inhibitory activity at final compound concentration 10 nM; 1 hour at room temperature
Kindly return 1.0 if reported ADP-Glo kinase assay (%, 10 nM) is no lower than 70%; return 0.0 if it is lower.

Query block: Please tell me: is the molecule COc1ccc(-n2cnc3c(N/N=C/c4cccc(C)c4)nc(N4CCOCC4)nc32)cn1 at or over 70% in terms of ADP-Glo kinase assay (%, 10 nM)?
Result block: 1.0

Query block: Next entry: Cc1cccc(/C=N/Nc2nc(N3CCOCC3)nc3c2ncn3-c2ccc(C#N)cn2)c1
Result block: 1.0

Query block: Next entry: Cc1cccc(/C=N/Nc2nc(N3CCOC[C@@H]3C)nc3c2ncn3-c2cccnc2)c1
Result block: 1.0

Query block: Next entry: O=C(Cn1cnc2c(N/N=C/c3c[nH]c4ccccc34)nc(N3CCOCC3)nc21)c1ccccn1
Result block: 1.0

Query block: Next entry: Cc1cccc(/C=N/Nc2nc(N3CCOCC3)nc3c2ncn3CC(=O)c2ccc(N3CCOCC3)cc2N2CCOCC2)c1
Result block: 0.0

Query block: Next entry: Cc1cccc(/C=N/Nc2nc(N3CCOCC3)nc3c2nc(C)n3-c2ccccn2)c1
Result block: 0.0

Query block: Next entry: Clc1cccc(/C=N/n2cnc3c(Nc4ccncc4)nc(N4CCOCC4)nc32)c1
Result block: 1.0

Query block: Next entry: Cc1cccc(/C=N/n2cnc3c(Nc4cncc(C)c4)nc(N4CCOCC4)nc32)c1
Result block: 0.0

----------
# IC50 per record follows
Molecular target: UniProt Q9Y2I7
Test: NanoBRET TE Intracellular Kinase Assay, interaction of PIKFYVE and compounds in HEK293 cells
Conditions: IC50 class from BRET; HEK293 cells expressing PIKFYVE-NanoLuc; 2 hours incubation
Procedure: To predict the efficacy of the compounds according to Example on PIKFYVE in humans, the interaction between PIKFYVE and the compounds was tested using the HEK293 cell line derived from human embryonic kidney (ATCC, CRL-1573) via NanoBRETT TE Intracellular Kinase Assay Service of Carna biosciences Inc., (Japan). The evaluation method provided by Carna biosciences Inc., was shown below and the NanoBRET™ TE Intracellular Kinase Assay, K-8 Kit (Promega, CS1810C88) was used. […]

Smiles data	Observed property	Obs value
Cc1cccc(/C=N/Nc2nc(N3CCOCC3)nc3c2ncn3CC(=O)c2cc(C(F)(F)F)ccn2)c1	IC50	20 to 30 nM

Query block: Which value of IC50 has been reported for Cc1cccc(/C=N/Nc2nc(N3CCOCC3)nc3c2ncn3-c2cccnc2)c1 in the records?
Result block: ≤ 10 nM

Query block: Next entry: Cc1cccc(/C=N/Nc2nc(N3CCOCC3)nc3c2ncn3-c2cccc(F)c2)c1
Result block: ≤ 10 nM

Query block: Next entry: Cc1cccc(/C=N/Nc2nc(N3CCOCC3)nc3c2ncn3-c2ccncc2)c1
Result block: ≤ 10 nM

Query block: Next entry: Cc1cccc(/C=N/Nc2nc(N3CCOCC3)nc3c(-c4cnn(C)c4)cccc23)c1
Result block: ≤ 10 nM

Query block: Next entry: Cc1cccc(/C=N/Nc2nc(N3CCOCC3)nc3c2ncn3CC(=O)c2cccc(Cl)c2)c1
Result block: ≤ 10 nM

Query block: Next entry: Cc1cccc(/C=N/Nc2nc(N3CCOCC3)nc3c2ncn3CC(=O)c2ccc(F)cn2)c1
Result block: 20 to 30 nM

Query block: Next entry: C(=N\Nc1nc(N2CCOCC2)nc2c1ncn2-c1ccccc1)/c1c[nH]c2ccccc12
Result block: ≤ 10 nM

----------
# ADP-Glo kinase assay (%, 10 nM) per record follows
Target: human GST-PIKFYVE (Homo sapiens)
Construct: GST; purchased Carna biosciences 11-118
Assay: ADP-Glo kinase assay, enzyme inhibition activity against human PIKFYVE (Carna biosciences)
Assay type: biochemical
Settings: inhibitory activity at final compound concentration 10 nM; 1 hour at room temperature
Protocol: The enzyme inhibition activity values for the compounds according to Examples against human PIKFYVE were calculated using the ADP-Glo™ kinase assay service of Carna biosciences, Inc. The enzyme activity evaluation method provided by Carna biosciences Inc., is shown below. Enzyme inhibition activity was evaluated by reacting the compounds according to Examples with human GST-PIKFYVE (11-118, Carna biosciences), which was purified using glutathione Sepharose chromatography. […]

Worked examples, 5 molecules total:
Molecule	ADP-Glo kinase assay (%, 10 nM)
Cc1cccc(/C=N/n2cnc3c(Nc4cccnc4)nc(N4CCOCC4)nc32)c1 [Example 191]	76.59%
Cc1cccc(/C=N/Nc2nc(N3CCOCC3)nc3c2ncn3-c2cccc(C)c2)c1 [Example 127]	84.12%
Cc1cccc(/C=N/Nc2nc(N3CCOCC3)nc3c(-c4ccccc4)cn(C)c23)c1 [Example 9]	51.47%
Cc1cccc(/C=N/Nc2nc(N3CCOCC3)nc3c2cnn3-c2cccnc2)c1 [Example 13]	51.68%
Cc1cccc(/C=N/Nc2nc(N3CCOCC3)nc3c2ncn3-c2cccc(C#N)c2)c1 [Example 126]	87.21%

Query block: Which value of ADP-Glo kinase assay (%, 10 nM) has been reported for Cc1cccc(/C=N/Nc2nc(N3CCOCC3)nc3c2ncn3-c2ccc(Cl)cc2)c1 [Example 100] in the records?
Result block: 83.22%

Query block: Next entry: Cc1cccc(/C=N/Nc2nc(N3CCOCC3)nc3c2nc(C)n3CC(=O)c2ccccn2)c1 [Example 157]
Result block: 71.16%

Query block: Next entry: Cc1cccc(/C=N/Nc2nc(N3CCOCC3)nc3c2ncn3-c2ccncc2)c1 [Example 103]
Result block: 91.20%

Origin of the recorded values: patent US20250388582A1
